Provenance of the data: ChEMBL document CHEMBL1154478

system: HT-1080; test: Antiproliferative activity against human HT1080 cells after 48 hrs by SRB assay; assay type: functional; settings: HT-1080, 48 h
Doc: threshold 30 µM (exclusive). Items with GI50 beneath it return MET; others return NOT MET.

Some solved entries appear below for comparison.
{"columns": ["MOLECULE", "TARGET_OR_SYSTEM", "CLASS_NAME"],
 "data": [
  ["Cc1cc2c(ccc3nccn32)nc1C", "HT-1080", "NOT MET"],
  ["CCc1ccc2c(ccc3nccn32)n1", "HT-1080", "NOT MET"],
  ["CCOC(=O)C1CCc2nc3c(ccn4ccnc34)cc2C1 (stereo not drawn)", "HT-1080", "NOT MET"],
  ["c1cn2ccc3cc4c(nc3c2n1)CCCC4", "HT-1080", "NOT MET"],
  ["O=C1CCCc2nc3c(ccn4ccnc34)cc21", "HT-1080", "NOT MET"],
  ["Cc1cc2ccn3ccnc3c2nc1C", "HT-1080", "NOT MET"]
]}

### Prompt Input c1ccc2c(c1)CCc1cc3ccn4ccnc4c3nc1-2 ; condition: GI50 strictly below 30 µM. Does it hold?
### Response MET

### Prompt Problem: For the molecule Cc1ccc2c(ccc3nccn32)n1 , is GI50 under 30 µM?
### Response NOT MET

### Prompt Does the reported GI50 of COc1cc(NS(C)(=O)=O)ccc1Nc1c2ccccc2nc2ccccc12 [AMSACRINE] stay below 30 µM?
### Response MET

---

Reported GI50 values for the following compounds.
tested on: M21; test: Antiproliferative activity against human M21 cells after 48 hrs by SRB assay; type: functional; conditions: M21, 48 h

Look over these answered cases.
{"columns": ["COMPOUND", "GI50"],
 "data": [
  ["O=C1CCCc2nc3ccc4nccn4c3cc21", "> 100 µM"],
  ["c1cn2ccc3cc4c(nc3c2n1)CCCC4", "> 100 µM"],
  ["CCOC(=O)C1CCc2nc3ccc4nccn4c3cc2C1 (stereo unspecified)", "> 100 µM"],
  ["c1ccc2c(c1)CCc1cc3c(ccc4nccn43)nc1-2", "52 µM"],
  ["CCOC(=O)C1CCc2nc3c(ccn4ccnc34)cc2C1 (stereo unspecified)", "80.3 µM"]
]}

As a next step, examine the compound that follows.
### Prompt Tell me GI50 of Cc1cc2ccn3ccnc3c2nc1C when tested on M21.
### Response > 100 µM

---

system: M21; experiment: Antiproliferative activity against human M21 cells after 48 hrs by SRB assay; format: functional; conditions: M21, 48 h
MEASURED_PROPERTY: GI50

Some molecules with known GI50 results, for comparison:
{"columns": ["SMILES_STRING", "GI50"],
 "data": [
  ["CCc1ccc2c(ccc3nccn32)n1", "> 100 µM"],
  ["c1ccc2c(c1)CCc1nc3c(ccn4ccnc34)cc1-2", "64.8 µM"],
  ["Cc1cc2c(ccc3nccn32)nc1C", "> 100 µM"],
  ["Cc1ccc2ccn3ccnc3c2n1", "> 100 µM"],
  ["c1ccc(-c2ccc3c(ccc4nccn43)n2)cc1", "70.1 µM"]
]}

### Prompt Give a short answer stating reported GI50 for COc1cc(NS(C)(=O)=O)ccc1Nc1c2ccccc2nc2ccccc12 .
### Response 49.6 µM

### Prompt Give a short answer stating reported GI50 for c1ccc(-c2ccc3ccn4ccnc4c3n2)cc1 .
### Response 56.5 µM

### Prompt Respond only with GI50 recorded for O=C1CCCc2nc3c(ccn4ccnc34)cc21
### Response > 100 µM

### Prompt Note GI50 for the molecule shown: c1ccc2cc3nc4c(ccn5ccnc45)cc3cc2c1
### Response 25.2 µM

### Prompt Please give the documented GI50 of c1ccc2c(c1)CCc1cc3ccn4ccnc4c3nc1-2
### Response 8.1 µM

### Prompt Respond only with GI50 recorded for CCc1ccc2ccn3ccnc3c2n1
### Response > 100 µM

### Prompt Supply GI50 value. Item: Cc1ccc2c(ccc3nccn32)n1
### Response > 100 µM

### Prompt Please report GI50 for the following molecule: c1cn2c(ccc3nc4c(cc32)CCCC4)n1
### Response > 100 µM
